- System: Brassica napus
- ASSAY COMMENT: Herbicidal activity against Brassica napus (oilseed rape) assessed as inhibition at 10 ug/ml by rape toot test
- Format: functional
Where a name gives a salt, the structure may show the parent alone.
Use 30% as the dividing line for inhibition at 10 µg/mL, with the line itself on the criterion met side and lower values as criterion not met.

MOLECULE	CLASSIFICATION
N=C(N)c1ccc(OCCCCCOc2ccc(C(=N)N)cc2)cc1 [PENTAMIDINE ISETHIONATE]	criterion not met
CCOc1ccc(C(=N)N)cc1 [4-ETHOXYBENZIMIDAMIDE HYDROCHLORIDE]	criterion not met
N=C(N)c1ccc(OCc2ccc(Cl)cc2Cl)cc1	criterion met
CCCCCCOc1ccc(C(=N)N)cc1 [4-(HEXYLOXY)BENZIMIDAMIDE HYDROCHLORIDE]	criterion not met
COc1ccc(C(=N)N)cc1 [4-METHOXYBENZIMIDAMIDE HYDROCHLORIDE]	criterion not met
N=C(N)c1ccc(OCc2cccc(Cl)c2)cc1	criterion met

* * *

Where a name gives a salt, the structure may show the parent alone.
These molecules were tested on Ketol-acid reductoisomerase, chloroplastic (Oryza sativa subsp. japonica, UniProt Q65XK0); Ki is the recorded read-out.
Sequence (Q65XK0 whole entry): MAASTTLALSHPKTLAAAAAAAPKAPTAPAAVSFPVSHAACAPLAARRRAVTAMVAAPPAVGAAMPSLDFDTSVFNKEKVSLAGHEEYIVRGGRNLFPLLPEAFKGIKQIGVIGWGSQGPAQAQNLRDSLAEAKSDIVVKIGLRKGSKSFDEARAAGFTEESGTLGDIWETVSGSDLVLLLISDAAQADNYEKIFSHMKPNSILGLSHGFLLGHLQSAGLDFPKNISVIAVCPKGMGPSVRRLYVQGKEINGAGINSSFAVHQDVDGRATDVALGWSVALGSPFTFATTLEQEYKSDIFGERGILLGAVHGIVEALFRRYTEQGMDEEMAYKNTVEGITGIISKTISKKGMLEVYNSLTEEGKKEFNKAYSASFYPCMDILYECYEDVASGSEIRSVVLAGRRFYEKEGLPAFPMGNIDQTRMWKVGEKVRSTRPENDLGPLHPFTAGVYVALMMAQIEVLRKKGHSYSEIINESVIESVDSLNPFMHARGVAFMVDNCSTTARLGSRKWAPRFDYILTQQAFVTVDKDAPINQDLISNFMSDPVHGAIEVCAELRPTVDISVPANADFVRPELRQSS
ATTRIBUTE MEASURED: Ki

MOLECULE	ATTRIBUTE MEASURED	VAL
CCCCCCCOc1ccc(C(=N)N)cc1 [4-(HEPTYLOXY)BENZIMIDAMIDE HYDROCHLORIDE]	Ki	61 µM
CCCCCOc1ccc(C(=N)N)cc1 [4-(PENTYLOXY)BENZIMIDAMIDE HYDROCHLORIDE]	Ki	1360 µM
CCCCCCOc1ccc(C(=N)N)cc1 [4-(HEXYLOXY)BENZIMIDAMIDE HYDROCHLORIDE]	Ki	190 µM
CCCCOc1ccc(C(=N)N)cc1 [4-BUTOXYBENZIMIDAMIDE HYDROCHLORIDE]	Ki	3530 µM
CCCOc1ccc(C(=N)N)cc1 [4-PROPOXYBENZIMIDAMIDE HYDROCHLORIDE]	Ki	> 1670 µM
C=CCOc1ccc(C(=N)N)cc1 [4-(ALLYLOXY)BENZIMIDAMIDE HYDROCHLORIDE]	Ki	> 1710 µM
N=C(N)c1ccc(OCc2ccc(Cl)cc2)cc1	Ki	411 µM
CC(C)Oc1ccc(C(=N)N)cc1 [4-ISOPROPOXYBENZIMIDAMIDE HYDROCHLORIDE]	Ki	> 1670 µM
N=C(N)c1ccc(OCc2ccccc2)cc1 [4-(BENZYLOXY)BENZIMIDAMIDE HYDROCHLORIDE]	Ki	> 1380 µM
COc1ccc(C(=N)N)cc1 [4-METHOXYBENZIMIDAMIDE HYDROCHLORIDE]	Ki	> 2080 µM
CCOc1ccc(C(=N)N)cc1 [4-ETHOXYBENZIMIDAMIDE HYDROCHLORIDE]	Ki	> 1900 µM
N=C(N)c1ccc(OCCCCCOc2ccc(C(=N)N)cc2)cc1 [PENTAMIDINE ISETHIONATE]	Ki	350 µM

* * *

Each item that follows carries a reported inhibition at 10 µg/mL.
- Test system: Echinochloa crus-galli
- ASSAY COMMENT: Herbicidal activity against Echinochloa crus-galli (barnyard grass) assessed as inhibition at 10 ug/ml by barnyardgrass cup test
- Format: functional
Where a name gives a salt, the structure may show the parent alone.
ATTRIBUTE MEASURED: inhibition at 10 µg/mL (%)

COMPOUND	ATTRIBUTE MEASURED	VAL
CCCCCCOc1ccc(C(=N)N)cc1 [4-(HEXYLOXY)BENZIMIDAMIDE HYDROCHLORIDE]	inhibition at 10 µg/mL	5.3
CCCCCCCOc1ccc(C(=N)N)cc1 [4-(HEPTYLOXY)BENZIMIDAMIDE HYDROCHLORIDE]	inhibition at 10 µg/mL	20.1
N=C(N)c1ccc(OCCCCCOc2ccc(C(=N)N)cc2)cc1 [PENTAMIDINE ISETHIONATE]	inhibition at 10 µg/mL	12.6
N=C(N)c1ccc(OCc2cccc(Cl)c2)cc1	inhibition at 10 µg/mL	21.5
COc1ccc(C(=N)N)cc1 [4-METHOXYBENZIMIDAMIDE HYDROCHLORIDE]	inhibition at 10 µg/mL	16.2
N=C(N)c1ccc(OCc2ccc(Cl)cc2Cl)cc1	inhibition at 10 µg/mL	21.8
